Let's look at some molecules and their measured AC50.
# Test system: HMLE_sh_eGFP viability, CellTiter-Glo luminescence, 72 h
# measurementProtocol: cytotoxicity in HMLE control line with eGFP shRNA, dose response, counter-screen for HMLE_sh_ECad selective toxicity project, cell-based, HMLE_sh_eGFP, luminescence (AID 463074);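 further: counterscreen control line to flag general toxicity for the HMLE_sh_ECad screen; potency for loss of viability as luminescence drops below DMSO wells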
The source made the active and inactive calls.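 How the source made its calls: active means AC50 no more than tenfold above the top dose tested, or full inhibition at every dose with a flat fit (cut at about 19 µM in these data); inconclusive means flat curve fit with inhibition between 30% and 70%, or poor fit; inactive means AC50 more than tenfold above the top dose tested.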
experimentalEndpoint: AC50

>>> print(df.to_string())
                                    molecule           resultvalue
 0  Cc1nn(Cc2ccc(Cl)c(Cl)c2)c(C)c1NC(=O)c1cc(-c2ccc3c(c2)OCO3)on1               1.56 µM
 1        Cc1cccc(N=N/C(=C\O)C(=O)c2cccs2)c1               6.25 µM
 2  CCCCCCc1cc2cc(S(=O)(=O)c3ccc(Cl)cc3)c(=O)oc2cc1O               9.25 µM
 3               O=C(C[n+]1ccccc1)NNc1ccccc1               1.78 µM
 4        CC(C)c1ccc(/C=C/C(=O)NC2=NCCS2)cc1  > 19.5 µM (inactive)
 5  Oc1ccc(C2=NN(c3ccccc3)C(c3ccc(F)cc3)C2)cc1 (stereo unspecified)               3.45 µM
 6  CCCCn1c(-c2cccc(C)c2)nc2cc3[nH]c(=O)c(C(C)C)nc3cc21               4.64 µM
 7   Cc1ccc(Cl)cc1NC(=S)N/N=C/c1cccc2ccccc12              0.298 µM
 8  Cc1cc(N2CCN(c3ccc(C(F)(F)F)cc3[N+](=O)[O-])CC2)c2ccccc2n1               1.38 µM
 9  COc1ccc(OC)c(-c2nnc3n2N=C(c2ccc(OC(F)F)c(OCC4CC4)c2)CS3)c1               4.26 µM
10  FC(F)(F)c1cc(CCN2CCNC[C@@H]2Cc2ccccc2)cc(C(F)(F)F)c1               13.7 µM
11  O=C(/C=C/c1ccc2c(c1)OCO2)Nc1nc(-c2ccccc2)cs1              0.781 µM
12  C/C(=N\NC(=O)c1nnn(-c2nonc2N)c1CN1CCc2ccccc21)c1ccccc1O               3.21 µM
13  C[C@]12CCC(O)CC1CCC1C2CC[C@]2(C)C(c3cc(C(F)(F)F)n[nH]3)CCC12 (stereo partly specified)               1.78 µM
14  Cn1nc(C(F)(F)F)c(C(=O)Nc2cccc(C(F)(F)F)c2)c1SCc1ccc(Cl)cc1               7.09 µM
15  CCCC/C(C)=C/[C@@H](NP(=O)(c1ccccc1)c1ccccc1)c1ccccc1               6.68 µM

====

# Tested on: HMLE_sh_eGFP viability, CellTiter-Glo luminescence, 72 h
# measurementProtocol: cytotoxicity in HMLE control line with eGFP shRNA, dose response, counter-screen for HMLE_sh_ECad selective toxicity project, cell-based, HMLE_sh_eGFP, luminescence (AID 463074);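 further: counterscreen control line to flag general toxicity for the HMLE_sh_ECad screen; potency for loss of viability as luminescence drops below DMSO wells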
experimentalEndpoint: AC50

>>> df
                                    compound                           systemundertest  resultvalue
 0  O=C(/C=C/c1ccc(Cl)c([N+](=O)[O-])c1)c1ccc(O)cc1  HMLE_sh_eGFP viability, CellTiter-Glo luminescence, 72 h      3.72 µM
 1  CCOC(=O)c1c2ccc(OCC(=O)N/N=C/c3ccc(C)cc3)cc2n2ccccc12  HMLE_sh_eGFP viability, CellTiter-Glo luminescence, 72 h      11.8 µM
 2  CN1CCN(C2Cc3ccc(F)cc3Sc3cc(F)c(Cl)cc32)CC1 (centres undefined)  HMLE_sh_eGFP viability, CellTiter-Glo luminescence, 72 h      5.49 µM
 3  O=C(Nc1cccc(-c2csc(-c3ccccc3)n2)c1)c1cccs1  HMLE_sh_eGFP viability, CellTiter-Glo luminescence, 72 h      5.22 µM
 4  COC(=O)c1ccc(COc2ccccc2/C=C(\C#N)C(=O)Nc2c(C)cc(C)cc2C)cc1  HMLE_sh_eGFP viability, CellTiter-Glo luminescence, 72 h      2.08 µM
 5  COc1ccc2sc(-c3ccc(SC)cc3)c(-c3ccc(O)cc3)c2c1  HMLE_sh_eGFP viability, CellTiter-Glo luminescence, 72 h      2.42 µM
 6  O=C(CSC1=NNC(c2ccccn2)S1)Nc1ccc(C(F)(F)F)cc1 (centres undefined)  HMLE_sh_eGFP viability, CellTiter-Glo luminescence, 72 h      4.27 µM
 7  S=C(Nc1cccc(Cl)c1)N(CCCN1CCCC1)Cc1cccn1Cc1ccc(Cl)cc1  HMLE_sh_eGFP viability, CellTiter-Glo luminescence, 72 h      6.86 µM
 8  Cn1cc([N+](=O)[O-])c(C(=O)Nc2ccc(-c3nc4ccccc4o3)cc2)n1  HMLE_sh_eGFP viability, CellTiter-Glo luminescence, 72 h      2.33 µM
 9   CCOC(=O)c1c(CSc2ccc(C)cc2)oc2ccc(O)cc12  HMLE_sh_eGFP viability, CellTiter-Glo luminescence, 72 h      5.05 µM
10  COc1ccc(-n2nc3c(N4CCC(C(=O)NCCc5ccccc5C)CC4)nnc(C)c3c2C)cc1  HMLE_sh_eGFP viability, CellTiter-Glo luminescence, 72 h      4.85 µM
11  OC(COCC(F)(F)C(F)(F)C(F)(F)C(F)F)Cn1c2ccccc2c2ccccc21 (centres undefined)  HMLE_sh_eGFP viability, CellTiter-Glo luminescence, 72 h      6.63 µM
12  COc1ccc(NS(=O)(=O)c2ccc3nc(COc4cccc5ccccc45)[nH]c3c2)cc1  HMLE_sh_eGFP viability, CellTiter-Glo luminescence, 72 h      4.75 µM
13  CCn1c2ccccc2c2cc(NC(=O)c3cc(OC)cc(OC)c3)ccc21  HMLE_sh_eGFP viability, CellTiter-Glo luminescence, 72 h     0.258 µM
